- measuredOn: T1, hCDH6aa54-615 APPavi (human, UniProt P55285 54-615)
- T1 sequence: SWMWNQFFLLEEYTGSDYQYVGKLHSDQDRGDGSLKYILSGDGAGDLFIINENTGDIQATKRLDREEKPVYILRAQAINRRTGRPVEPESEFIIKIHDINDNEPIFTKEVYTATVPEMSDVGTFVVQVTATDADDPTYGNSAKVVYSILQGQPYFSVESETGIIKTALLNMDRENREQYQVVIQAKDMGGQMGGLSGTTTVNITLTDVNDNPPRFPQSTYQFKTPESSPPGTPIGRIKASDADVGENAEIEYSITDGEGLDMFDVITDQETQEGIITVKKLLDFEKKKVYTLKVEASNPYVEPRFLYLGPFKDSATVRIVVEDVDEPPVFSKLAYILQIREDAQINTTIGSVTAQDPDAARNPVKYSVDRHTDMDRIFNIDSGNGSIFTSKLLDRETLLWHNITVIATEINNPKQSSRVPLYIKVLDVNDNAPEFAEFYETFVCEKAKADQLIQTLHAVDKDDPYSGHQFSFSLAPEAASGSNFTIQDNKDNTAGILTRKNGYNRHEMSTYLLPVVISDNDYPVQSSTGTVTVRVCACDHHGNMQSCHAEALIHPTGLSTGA
- testDetails: SPR binning
propertyLabel: response of secondary antibody on primary antibody-CDH6 complex

binder	testResult
NOV1126 (antibody, human IgG1, lambda, V domains shown) VH: EVQLLESGGGLVQPGGSLRLSCAASGFTFSDHAIDWVRQAPGKGLEWVSVIAGSGSITYYADSVKGRFTISRDNSKNTLYLQMNSLRAEDTAVYYCARDTGVYREYMDVWGQGTLVTVSS VL: SYELTQPLSVSVALGQTARITCSGDAIGTKFAHWYQQKPGQAPVLVIYYDHERPSGIPERFSGSNSGNTATLTISRAQAGDEADYYCYSRASSNLVFGGGTKLTVLG	26.7
NOV0710 (antibody, human IgG1, kappa, V domains shown) VH: QVQLLESGGGLVQPGGSLRLSCAASGFTFSSYAMSWVRQAPGKGLEWVSVIRSSGSSTYYADSVKGRFTISRDNSKNTLYLQMNSLRAEDTAVYYCARGGGYFDYWGQGTLVTVSS VL: DIQMTQSPSSLSASVGDRVTITCRASQSISLWLNWYQQKPGKAPKLLIYAASTLQSGVPSRFSGSGSGTDFTLTISSLQPEDFATYYCQQYYTSPYTFGQGTKVEIKR	-2.17
NOV1127 (antibody, human IgG1, kappa, V domains shown) VH: QVQLQQSGPGLVKPSQTLSLTCAISGDSVSSQSAAWNWIRQSPSRGLEWLGRIYYRSKWYNDYAVSVKSRITINPDTSKNQFSLQLNSVTPEDTAVYYCARERSYRDYFDYWGQGTLVTVSS VL: DIQMTQSPSSLSASVGDRVTITCRASQGIFTYLNWYQQKPGKAPKLLIYAASTLQSGVPSRFSGSGSGTDFTLTISSLQPEDFATYYCQQYYSTSLTFGQGTKVEIKR	22.4
